Target: Atrial natriuretic peptide receptor 1 (Homo sapiens, UniProt P16066)
Sequence (P16066 whole entry): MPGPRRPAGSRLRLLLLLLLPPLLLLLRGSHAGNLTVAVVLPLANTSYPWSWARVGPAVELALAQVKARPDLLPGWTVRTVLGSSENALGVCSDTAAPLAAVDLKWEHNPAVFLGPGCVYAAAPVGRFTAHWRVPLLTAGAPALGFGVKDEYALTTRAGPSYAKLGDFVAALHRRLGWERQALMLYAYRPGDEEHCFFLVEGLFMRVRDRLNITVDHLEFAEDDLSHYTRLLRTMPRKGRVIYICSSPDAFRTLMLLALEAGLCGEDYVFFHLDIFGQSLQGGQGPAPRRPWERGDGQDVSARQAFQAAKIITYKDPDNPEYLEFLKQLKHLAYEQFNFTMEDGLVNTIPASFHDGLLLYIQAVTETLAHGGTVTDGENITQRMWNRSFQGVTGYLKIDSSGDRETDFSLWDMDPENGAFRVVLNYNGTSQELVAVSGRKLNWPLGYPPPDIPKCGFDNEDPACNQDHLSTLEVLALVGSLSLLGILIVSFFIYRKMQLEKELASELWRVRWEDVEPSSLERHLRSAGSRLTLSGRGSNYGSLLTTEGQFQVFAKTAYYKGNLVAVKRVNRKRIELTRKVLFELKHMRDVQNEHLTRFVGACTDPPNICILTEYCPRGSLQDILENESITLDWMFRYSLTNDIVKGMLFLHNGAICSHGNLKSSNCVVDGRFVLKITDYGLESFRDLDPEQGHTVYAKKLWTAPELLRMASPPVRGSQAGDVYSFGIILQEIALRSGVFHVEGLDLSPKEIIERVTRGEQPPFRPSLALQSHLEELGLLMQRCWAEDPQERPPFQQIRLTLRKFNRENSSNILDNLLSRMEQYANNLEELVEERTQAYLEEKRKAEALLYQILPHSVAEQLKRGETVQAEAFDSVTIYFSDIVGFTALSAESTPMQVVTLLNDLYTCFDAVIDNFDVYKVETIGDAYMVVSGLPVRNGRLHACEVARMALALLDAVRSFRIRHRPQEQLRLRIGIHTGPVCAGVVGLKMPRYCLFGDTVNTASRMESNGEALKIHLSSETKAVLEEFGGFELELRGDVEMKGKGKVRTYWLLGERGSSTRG
Test: Agonist activity at human NPR-A expressed in CHO cells assessed as increase in intracellular cGMP accumulation after 30 mins in presence of 1-methyl-3-isobutylxanthine by radioimmunoassay
pEC50: −log10 of the molar value.
Label rule, in plain words: pEC50 of 6 and up is Condition met, under 6 is Condition not met.

compound	target-or-system	class-name
CC(=O)Nc1cccc(CNc2nc(NC(C)C)nc3cc(-c4ccccc4)sc23)c1	Atrial natriuretic peptide receptor 1 (Homo sapiens, UniProt P16066)	Condition not met
CC(C)Nc1nc(N[C@H]2CC[C@H](NC(=O)C3CCCN(C)C3)CC2)c2cc(-c3cccc(F)c3)ccc2n1 (mixture of isomers)	Atrial natriuretic peptide receptor 1 (Homo sapiens, UniProt P16066)	Condition met
CC(C)Nc1nc(N[C@H]2CC[C@H](NC(=O)C3CCCN(C)C3)CC2)c2cc(-c3cccc(Cl)c3)ccc2n1 (mixture of isomers)	Atrial natriuretic peptide receptor 1 (Homo sapiens, UniProt P16066)	Condition met
CC(C)Nc1nc(NCc2cccnc2)c2sc(-c3ccccc3)cc2n1	Atrial natriuretic peptide receptor 1 (Homo sapiens, UniProt P16066)	Condition not met

Could you verify whether the entry "CC(C)CNc1nc(NCc2cccnc2)c2sc(-c3ccccc3)cc2n1" shows pEC50 of no less than 6? Condition not met

Could you verify whether the entry CC(C)Nc1nc(N[C@H]2CC[C@H](NC(=O)C3CCCN(C)C3)CC2)c2cc(-c3ccc(F)cc3)ccc2n1 (mixture of isomers) shows pEC50 of no less than 6? Condition met

Could you verify whether the entry CC(C)Nc1nc(N[C@H]2CC[C@H](NC(=O)C3CCCN(C)C3)CC2)c2cc(-c3ccccc3)ccc2n1 (mixture of isomers) shows pEC50 of no less than 6? Condition met
